molecular target: c-Src (Homo sapiens (Human)); test: c-Src enzyme inhibition (FRET, Z-LYTE); assay type: biochemical
Sequence (P12931 whole entry, looked up): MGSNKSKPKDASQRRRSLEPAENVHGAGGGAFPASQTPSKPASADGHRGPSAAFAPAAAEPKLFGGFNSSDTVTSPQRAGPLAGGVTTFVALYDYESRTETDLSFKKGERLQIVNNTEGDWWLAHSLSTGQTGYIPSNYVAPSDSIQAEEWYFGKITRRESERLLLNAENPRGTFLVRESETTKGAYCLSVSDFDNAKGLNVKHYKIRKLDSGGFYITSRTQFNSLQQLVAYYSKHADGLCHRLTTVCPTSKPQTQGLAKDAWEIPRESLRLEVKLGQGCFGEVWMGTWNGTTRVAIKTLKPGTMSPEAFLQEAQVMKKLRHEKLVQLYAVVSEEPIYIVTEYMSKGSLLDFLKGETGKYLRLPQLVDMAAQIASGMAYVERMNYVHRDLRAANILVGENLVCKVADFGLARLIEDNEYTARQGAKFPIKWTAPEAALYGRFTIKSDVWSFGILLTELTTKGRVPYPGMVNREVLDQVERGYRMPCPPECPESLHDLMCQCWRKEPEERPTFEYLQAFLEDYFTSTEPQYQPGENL
value_kind: IC50

A selection of reference data follows.
item_smiles	value_kind	result
C#Cc1cc(Nc2cc(Oc3ccc(NC(=O)Nc4cc(C(C)(C)C)cc(NS(C)(=O)=O)c4OC)c4ccccc34)ccn2)cc(C(=O)N[C@@H](C)COCCOCCOC)c1	IC50	56 nM
COc1cccc(Nc2cc(Oc3ccc(NC(=O)Nc4cc(C(C)(C)C)cc(C(=O)NC5COC5)c4OC)c4ccccc34)ccn2)c1	IC50	58 nM

query: // IC50 lookup, key: COc1cc(Nc2nccc(Oc3ccc(NC(=O)Nc4cc(C(C)(C)C)cc(NS(C)(=O)=O)c4OC)c4ccccc34)n2)cc(OCCOCCOCCN2CCOCC2)c1
result: 10 nM

query: // IC50 lookup, key: CNC(=O)c1cc(C(C)(C)C)cc(NC(=O)Nc2ccc(Oc3ccnc(Nc4cc(OC)cc(OCCOCCOCCOC)c4)c3)c3ccccc23)c1OC
result: 19 nM

query: // IC50 lookup, key: COc1cc(Nc2cc(Oc3ccc(NC(=O)Nc4cc(C(C)(C)C)cc(NS(C)(=O)=O)c4OC)c4ccccc34)ccn2)cc(C(=O)NCCN2CCOCC2)c1
result: 26 nM

query: // IC50 lookup, key: COCCOCCOCCOc1cc(Nc2cc(Oc3ccc(NC(=O)Nc4cc(C(C)(C)C)cc(C(=O)NC5COC5)c4OC)c4ccccc34)ccn2)cc(OC)c1
result: 23 nM

---

// each record: one item and its IC50 for Syk (Homo sapiens (Human))
Reply with the number and its unit after it.

query: Requested read-out IC50, target or system Syk (Homo sapiens (Human)), entry COCCOCCOCCOc1cc(Nc2nccc(Oc3ccc(NC(=O)Nc4cc(C(C)(C)C)cc(C(N)=O)c4OC)c4ccccc34)n2)cc(OC)c1
result: 29 nM

query: Requested read-out IC50, target or system Syk (Homo sapiens (Human)), entry C#Cc1cc(Nc2nccc(Oc3ccc(NC(=O)Nc4cc(C(C)(C)C)cc(NS(C)(=O)=O)c4OC)c4ccccc34)n2)cc(C(=O)N[C@@H](C)CN2CCOCC2)c1
result: 706 nM

query: Requested read-out IC50, target or system Syk (Homo sapiens (Human)), entry COc1cc(Nc2cc(Oc3ccc(NC(=O)Nc4cc(C(C)(C)C)cc(NS(C)(=O)=O)c4OC)c4ccccc34)ccn2)cc(OCCOCCOCCO)c1 [84(e)]
result: 125 nM

---

Target: UniProt P08684
Assay: CYP3A4 inhibition study
Format: in vitro ADME
Conditions: human, CYP3A4, 30 min preincubation, 15 μM; read-out: 15 μM % Inh
Method: Assessment of certain in vitro ADME (absorption, distribution, metabolism, and excretion) parameters for certain compounds of the invention was conducted by BioFocus (Saffron Walden, UK).
value_kind: inhibition at 15 µM (%)
The figure you give is taken to be in %; do not add the unit.

A selection of reference data follows.
item_smiles	test_target	inhibition at 15 µM [%]
COc1cc(Nc2cc(Oc3ccc(NC(=O)Nc4cc(C(C)(C)C)cc(NS(C)(=O)=O)c4OC)c4ccccc34)ccn2)cc(C(=O)NCCN2CCOCC2)c1	UniProt P08684	57
COCCOCCOCCNC(=O)c1cc(Nc2cc(Oc3ccc(NC(=O)Nc4cc(C(C)(C)C)cc(NS(C)(=O)=O)c4OC)c4ccccc34)ccn2)cc(OC)c1	UniProt P08684	51
COc1cc(Nc2nccc(Oc3ccc(NC(=O)Nc4cc(C(C)(C)C)cc(NS(C)(=O)=O)c4OC)c4ccccc34)n2)cc(S(=O)(=O)C2CC2)c1	UniProt P08684	27

Next:
query: // inhibition at 15 µM lookup, key: COc1c(NC(=O)Nc2ccc(Oc3ccnc(Nc4ccccc4)c3)c3ccccc23)cc(C(C)(C)C)cc1C(=O)NC1COC1
result: 42

---

// each record: one item and its IC50 for p38 MAPKα (MAPK14) (Homo sapiens (Human), UniProt Q16539)
Reply with the number and its unit after it.

A selection of reference data follows.
compound	result
COCCOCCOCCOc1cc(Nc2nccc(Oc3ccc(NC(=O)Nc4cc(C(C)(C)C)cc(NS(C)(=O)=O)c4OC)c(Cl)c3Cl)n2)cc(OC)c1	551 nM
COCCOCCOCCOc1cc(Nc2cc(Oc3ccc(NC(=O)Nc4cc(C(C)(C)C)cc(NS(C)(=O)=O)c4OC)c4ccccc34)ccn2)cc(OC)c1	124 nM
COCCOCCOCCOc1cc(Nc2nccc(Oc3ccc(NC(=O)Nc4cc(C(C)(C)C)cc(C(=O)NCCO)c4OC)c4ccccc34)n2)cc(OC)c1	120 nM
COCCOCCOCCOc1cc(Nc2cc(Oc3ccc(NC(=O)Nc4cc(C(C)(C)C)cc(C(N)=O)c4OC)c4ccccc34)ccn2)cc(OC)c1	25 nM
COCCOCCOCCNC(=O)c1cc(Nc2cc(Oc3ccc(NC(=O)Nc4cc(C(C)(C)C)cc(NS(C)(=O)=O)c4OC)c4ccccc34)ccn2)cc(OC)c1	87 nM

Next:
query: Requested read-out IC50, target or system p38 MAPKα (MAPK14) (Homo sapiens (Human), UniProt Q16539), entry COc1c(NC(=O)Nc2ccc(Oc3ccnc(NCc4ccccn4)c3)c3ccccc23)cc(C(C)(C)C)cc1C(=O)NC1COC1
result: 18 nM

---

system: TNBS-induced colitis in BDF1 mice; assay: TNBS-induced colitis in mice (in vivo iv); design: species or system mouse; conditions: TNBS-induced colitis in mice, 5 mg/kg oral
value_kind: LP inflammation
Number only, please.

A selection of reference data follows.
item_smiles	test_target	numeric_readout
COCCOCCOCCNC(=O)c1cc(Nc2cc(Oc3ccc(NC(=O)Nc4cc(C(C)(C)C)cc(NS(C)(=O)=O)c4OC)c4ccccc34)ccn2)cc(OC)c1	TNBS-induced colitis in BDF1 mice	3.8
COCCOCCOCCOc1cc(Nc2cc(Oc3ccc(NC(=O)Nc4cc(C(C)(C)C)cc(C(N)=O)c4OC)c4ccccc34)ccn2)cc(OC)c1	TNBS-induced colitis in BDF1 mice	2.6
COc1cc(Nc2cc(Oc3ccc(NC(=O)Nc4cc(C(C)(C)C)cc(NS(C)(=O)=O)c4OC)c4ccccc34)ccn2)cc(C(=O)NCCN2CCN(C)CC2)c1	TNBS-induced colitis in BDF1 mice	3.5
COc1cc(Nc2cc(Oc3ccc(NC(=O)Nc4cc(C(C)(C)C)cc(NS(C)(=O)=O)c4OC)c4ccccc34)ccn2)cc(C(=O)NCCN2CCOCC2)c1	TNBS-induced colitis in BDF1 mice	3.2

query: Requested read-out LP inflammation, target or system TNBS-induced colitis in BDF1 mice, entry COc1c(NC(=O)Nc2ccc(Oc3ccnc(Nc4ccccc4)c3)c3ccccc23)cc(C(C)(C)C)cc1C(=O)NC1COC1
result: 2.3

---

target: CYP3A4 (Homo sapiens (Human)); test: CYP3A4 inhibition study; format: in vitro ADME; settings: CYP3A4, 0 min preincubation
Sequence (P08684 whole entry): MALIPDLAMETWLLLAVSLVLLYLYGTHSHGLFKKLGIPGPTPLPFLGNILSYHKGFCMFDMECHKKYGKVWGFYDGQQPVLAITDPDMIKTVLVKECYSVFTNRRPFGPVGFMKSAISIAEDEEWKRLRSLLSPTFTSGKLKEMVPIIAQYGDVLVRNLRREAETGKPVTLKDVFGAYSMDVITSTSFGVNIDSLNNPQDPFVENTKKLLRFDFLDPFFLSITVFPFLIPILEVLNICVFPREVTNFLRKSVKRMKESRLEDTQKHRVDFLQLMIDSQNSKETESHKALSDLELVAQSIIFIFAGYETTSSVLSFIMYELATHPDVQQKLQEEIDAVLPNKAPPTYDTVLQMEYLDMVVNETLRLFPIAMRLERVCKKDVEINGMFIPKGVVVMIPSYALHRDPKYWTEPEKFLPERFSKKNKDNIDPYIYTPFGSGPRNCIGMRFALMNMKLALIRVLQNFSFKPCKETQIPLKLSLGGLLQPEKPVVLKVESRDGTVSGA
value_kind: IC50

compound	test_target	value_kind	result
COc1cc(Nc2cc(Oc3ccc(NC(=O)Nc4cc(C(C)(C)C)cc(NS(C)(=O)=O)c4OC)c4ccccc34)ccn2)cc(C(=O)NCCN2CCOCC2)c1 [Example 27]	CYP3A4 (Homo sapiens (Human))	IC50	> 15 µM
COc1c(NC(=O)Nc2ccc(Oc3ccnc(Nc4ccccc4)c3)c3ccccc23)cc(C(C)(C)C)cc1C(=O)NC1COC1 [Example 75]	CYP3A4 (Homo sapiens (Human))	IC50	> 15 µM
COCCOCCOCCOc1cc(Nc2nccc(Oc3ccc(NC(=O)Nc4cc(C(C)(C)C)cc(NS(C)(=O)=O)c4OC)c4ccccc34)n2)cc(OC)c1 [Example 4]	CYP3A4 (Homo sapiens (Human))	IC50	> 5 µM
COCCOCCOCCNC(=O)c1cc(Nc2cc(Oc3ccc(NC(=O)Nc4cc(C(C)(C)C)cc(NS(C)(=O)=O)c4OC)c4ccccc34)ccn2)cc(OC)c1 [Example 3]	CYP3A4 (Homo sapiens (Human))	IC50	> 15 µM

Next:
query: Requested read-out IC50, target or system CYP3A4 (Homo sapiens (Human)), entry COc1cc(Nc2nccc(Oc3ccc(NC(=O)Nc4cc(C(C)(C)C)cc(NS(C)(=O)=O)c4OC)c4ccccc34)n2)cc(S(=O)(=O)C2CC2)c1 [Example 5]
result: > 15 µM

---

// each record: one item and its pIC50 for c-Src (Homo sapiens (Human), UniProt P12931)
In textbook form, pIC50 equals minus log to base ten of the concentration in mol/L.

query: // pIC50 lookup, key: COCCOCCOCCOc1cc(Nc2nccc(Oc3ccc(NC(=O)Nc4cc(C(C)(C)C)cc(C(=O)NCC(=O)OC)c4OC)c4ccccc34)n2)cc(OC)c1
result: 7.92

query: // pIC50 lookup, key: C#Cc1cc(Nc2cc(Oc3ccc(NC(=O)Nc4cc(C(N)=O)cc(C(C)(C)C)c4)c4ccccc34)ccn2)cc(C(=O)NCCOCCOCCOC)c1
result: 7.36

query: // pIC50 lookup, key: COc1cc(Nc2nccc(Oc3ccc(NC(=O)Nc4cc(C(C)(C)C)cc(NS(C)(=O)=O)c4OC)c4ccccc34)n2)cc(C(=O)NCCN2CCOCC2)c1
result: 7.96
